Test system: SK-OV-3
Assay: Cytotoxicity against human SKOV3 cells after 72 hrs by MTT assay
Assay type: functional, cell-based
Settings: sk-ov-3
property: IC50 (nM)
Numeric only. Scale: nM

Entry `CN1CCN(CCCCNc2cc3c4ccccc4c(NCCCCN4CCN(C)CC4)cc3c3ccccc23)CC1.Cl` ; IC50 = 1000

====

System: PC-3
Experiment: Cytotoxicity against human PC3 cells after 72 hrs by MTT assay
Format: functional, cell-based
Conditions: pc-3
property: IC50
For clarity, give the value followed by its unit.

IC50 recorded for this compound, `CN1CCN(CCCCNc2cc3c4ccccc4c(NCCCCN4CCN(C)CC4)cc3c3ccccc23)CC1.Cl` , is 2100 nM
